- Test system: Pasteurella multocida
- method.summary: minimum inhibitory concentration (MIC)
- condition.summary: isolate (source animal id): 193
value.type: minimum inhibitory concentration

In: # return recorded minimum inhibitory concentration for entry CS(=O)(=O)c1ccc([C@@H](O)[C@@H](CF)NC(=O)C(Cl)Cl)cc1 [Florfenicol]
Out: 0.5 µg/mL

In: Assign minimum inhibitory concentration to the following record: CCCN1C[C@H](C)[C@@H](O)[C@](C)(O)[C@@H](CC)OC(=O)[C@H](C)[C@@H](O[C@H]2C[C@@](C)(OC)[C@@H](O)[C@H](C)O2)[C@H](C)[C@@H](O[C@@H]2O[C@H](C)C[C@H](N(C)C)[C@H]2O)[C@](C)(O)C[C@H]1C [Gamithromycin]
Out: ≤ 1 µg/mL

In: Indicate its recorded minimum inhibitory concentration; the compound in question is CCC[C@@H]1C[C@@H](C(=O)N[C@@H]([C@H]2O[C@H](SC)[C@H](O)[C@@H](O)[C@H]2O)[C@H](C)Cl)N(C)C1 [Clindamycin]
Out: > 16 µg/mL

In: Identify the reported minimum inhibitory concentration for the following entry. CN[C@@H]1[C@H](O)[C@H](NC)[C@H]2O[C@@]3(O)C(=O)C[C@@H](C)O[C@H]3O[C@@H]2[C@H]1O [Spectinomycin]
Out: > 64 µg/mL
